system: U2OS; assay: Multiplex assay against U2OS; format: toxicity, cell-based; details: human, 12 h, 1 µM, compound concentration 1 uM, replicate 1
observable: Population Pyknosed Nuclei (%)
Write your answer as a measured quantity: the number, then the unit.

{"compound": "CC(C)(C)c1ccc(S(=O)(=O)Nc2ccc(Cl)cc2C(=O)c2cc[n+]([O-])cc2)cc1 [VERCIRNON]", "Population Pyknosed Nuclei (%)": "10%"}

Find Population Pyknosed Nuclei (%) (U2OS) for the entry C[C@H](NC(=O)c1c(C(F)F)nn(C)c1Oc1cccc(C(F)(F)F)c1)c1ccc(C(=O)O)cc1 [PALUPIPRANT] 8%

Find Population Pyknosed Nuclei (%) (U2OS) for the entry COc1cc(C(=O)N(CCCc2ccccc2)Cc2ccc(CC(=O)O)cc2)cc(OC)c1C 10%

Find Population Pyknosed Nuclei (%) (U2OS) for the entry CN(C)c1ccnc2sc3c(=O)n(N4CCCCCC4)cnc3c12 7%

Find Population Pyknosed Nuclei (%) (U2OS) for the entry CCCN1CCC[C@@H]2Cc3n[nH]cc3C[C@H]21.Cl [QUINPIROLE HYDROCHLORIDE] 8%

Find Population Pyknosed Nuclei (%) (U2OS) for the entry Cc1ccc(/C(=C\CN2CCCC2)c2ccccn2)cc1 [TRIPROLIDINE] 8%

Find Population Pyknosed Nuclei (%) (U2OS) for the entry C[C@@H]1C[C@H]2[C@@H]3CCC4=CC(=O)C=C[C@]4(C)[C@@]3(F)[C@@H](O)C[C@]2(C)[C@@]1(O)C(=O)CO [DEXAMETHASONE] 7%

Find Population Pyknosed Nuclei (%) (U2OS) for the entry O=C(NCC(=O)N1CC[C@H](N[C@H]2CC[C@@](O)(c3ccc(-c4ncccn4)cn3)CC2)C1)c1cccc(C(F)(F)F)c1 [PF-4136309] 9%

// provenance: ChEMBL document CHEMBL5058577
